test system: Plasmodium berghei; experiment: Screen against P. berghei liver stage (PbLuc), transformed with Luciferase, at 2uM; assay type: functional, HepG2; conditions: tested at 2 uM
Screen size: about 68,000 compounds; about 2,700 (4%) showed an effect of 50% or more. The sample holds strong results, similar compounds and a random draw of the others, so the mix is not that of the screen.
Rule: measured INHIBITION below 30% gets condition met; anything equal to or greater than 30% gets condition not met.

compound="Cc1ccc(CC(=O)N2CCCC(c3ccn[nH]3)C2)cn1 (stereo not given)" group="condition met"
compound="O=C(c1cnnn1-c1ccccc1)N1CCCC(c2ccn[nH]2)C1 (stereo not given)" group="condition met"
compound=COc1ccc(F)cc1-n1cnc(CCNC(C)=O)c1 group="condition not met"
compound=Cc1noc([C@H]2C[C@@H]3CCN(C(=O)N(C)C)C[C@H]3O2)n1 group="condition met"
compound=O=C(O)c1cc(-c2cc[nH]n2)cc(S(=O)(=O)N2CCCCCC2)c1 group="condition met"
compound=CC(C)CN1CC[C@@H]2[C@H](CC1)N(C(=O)c1ccccc1)CCS2(=O)=O group="condition met"
compound="Nc1nccnc1C1CN(C(=O)c2ccnnc2)CCO1 (stereo not given)" group="condition met"
compound=Cc1c(C)c(C)c2[nH]c(-c3cn(C4CCNCC4)nn3)nc2c1C group="condition not met"
compound=COc1cc(F)c(-n2cnc(CCNC(C)=O)c2)cc1F group="condition not met"
compound="CSCCC(=O)N1CCN(CC(O)C(C)(C)C)CC1 (stereo not given)" group="condition not met"
compound="Cc1cc(C2CCCN2C(=O)CN2C(=O)OC(C)(C)C2=O)on1 (stereo not given)" group="condition not met"
compound=O=C(Nc1ccc(N2CCCCC2)nc1)N1CCc2sccc2C1 group="condition met"
compound="CCC(O)CN1CCN(C(=O)CCSC)CC1 (stereo not given)" group="condition met"
compound=Cc1ccc(CN2CCCn3nnc(COCCN(C)C)c3C2)s1 group="condition met"
compound=Cc1ccc(CN2CC[C@H]3[C@H]2CCN3S(C)(=O)=O)s1 group="condition met"
compound="Cc1occc1C(=O)NCC(O)c1ccc(Cl)s1 (stereo not given)" group="condition not met"
compound="CCN1CCN(C(=O)NC(C)c2noc(-c3ccccc3)n2)CC1 (stereo not given)" group="condition not met"
compound="Nc1nccnc1C1CN(C(=O)c2ccc3c(c2)OCO3)CCO1 (stereo not given)" group="condition not met"
compound=CCCc1nnc(NC2CCN(C3CCOCC3)CC2)o1 group="condition not met"
compound="CN(C)C(=O)COc1ccccc1CN1CCCC2(C1)CN(C)C(=O)O2 (stereo not given)" group="condition met"
compound="Cc1cn2nc(N3CCCC3C(=O)N3CCOCC3)sc2n1 (stereo not given)" group="condition met"
compound="Cc1sc(-c2ccco2)nc1C(=O)N(CC1CCOC1)C1CC1 (stereo not given)" group="condition met"
compound=COc1ccc(Cl)cc1-n1cnc(CCNC(C)=O)c1 group="condition met"
compound=Clc1ccccc1CCn1ccnc1-c1cn(C2CCNCC2)nn1 group="condition met"
compound=Cc1cccc2[nH]c(-c3cn(C4CCNCC4)nn3)nc12 group="condition not met"
compound="Cc1nnc2n1CCN(C(=O)C(C)Oc1ccc(C#N)cc1)C2 (stereo not given)" group="condition not met"
compound="CCOC(=O)CN1C(=O)CN(S(C)(=O)=O)CCC(OC)c2ccccc21 (stereo not given)" group="condition met"
compound="Cc1cn2nc(N3CCCC3C(=O)N3CCSCC3)sc2n1 (stereo not given)" group="condition not met"
compound=O=C(Nc1ccc(N2CCCC2)nc1)N1CCc2sccc2C1 group="condition met"
compound=O=C(O)[C@@H]1CN(C(=O)CN2Cc3ccccc3C2)C[C@H]1c1ccncc1 group="condition met"
compound="CNC(=O)C(C)CN(C)C(=O)Nc1cc(F)cc(Br)c1 (stereo not given)" group="condition met"
compound=Cc1nc2c(C)cccc2cc1C(=O)N1CCC2(CC1)NCCNC2=O group="condition not met"
compound=COc1cccc(CCn2ccnc2-c2cn(C3CCNCC3)nn2)c1 group="condition met"
compound=COCCN(C(=O)c1nc(-c2ccco2)sc1C)C1CC1 group="condition met"
compound=O[C@@H]1C[C@@H](c2nc(-c3cccnc3)no2)N(C2CCOCC2)C1 group="condition met"
compound="Cc1cc(C2CCCCN2C(=O)CN2C(=O)OC(C)(C)C2=O)no1 (stereo not given)" group="condition met"
compound=Cc1csc(N2CCN(C(=O)Cc3cccs3)CC2)n1 group="condition met"
compound="CCN(CC1CCOCC1)C(=O)C1CC(=O)N(Cc2cccnc2)C1 (stereo not given)" group="condition met"
compound="Cc1cc(C(=O)NCC(O)c2ccc(Cl)s2)c(C)o1 (stereo not given)" group="condition not met"
compound=O=C(Nc1ccc(N2CCOCC2)nc1)N1CCc2sccc2C1 group="condition not met"
compound=CC(=O)N1CCS(=O)(=O)[C@@H]2CCN(CC(C)C)CC[C@@H]21 group="condition not met"
compound=CC(C)OCc1ccccc1CNC(=O)C(C)(C)C group="condition met"
compound="CC(C)c1cc(C2CCCN2C(=O)CN2C(=O)OC(C)(C)C2=O)no1 (stereo not given)" group="condition not met"
compound=Cc1ccc(NC(=O)NCCCn2nc3ccccn3c2=O)cc1 group="condition met"
